Test system: M14 melanoma
Assay: NCI tumour cell line growth inhibition, 48 h
I'd appreciate it if you could supply TGI values for the items below.

Please go through the list and note TGI for each compound.
1. O=C(/N=C/c1c(O)c2ccccc2oc1=O)Oc1ccccc1
2. Fc1ccc(C(=C2CCN(CCc3ccc4[nH]c(=S)[nH]c4c3)CC2)c2ccc(F)cc2)cc1
3. COc1cc(O)c(C(=O)/C=C/c2ccc(O)cc2)cc1Oc1ccc(/C=C/C(=O)c2ccc(O)cc2O)cc1
4. Cc1ccc(-c2n[nH]c(=O)n2/N=C\c2ccc([N+](=O)[O-])cc2)cc1
5. Cc1c(O)c(OC2OC(CO)C(O)C(O)C2O)cc2c1CC[C@@H]1C2(C)C(=O)C[C@]2(C)[C@@H]([C@@](C)(O)C(=O)CCC(C)(C)O)[C@H](O)C[C@@]12C (some centres undefined)

Response:
1. > 100 µM
2. 2.9 µM
3. 17.4 µM
4. > 100 µM
5. > 100 µM

Respectfully, I request TGI for each entry included below.
1. COC(=O)C1(C(=O)OC)C/C(C)=C(/C)SCCCS1
2. CC(=O)O/C(=C1\C[C@H]2[C@@H]3CC=C4C[C@@H](OC(C)=O)CC[C@]4(C)[C@H]3CC[C@]2(C)C1=O)C(F)(F)F
3. O=S(=O)(c1ccccc1)C1CN2OC1(S(=O)(=O)c1ccccc1)CC2c1ccc(Br)cc1 (centres undefined)
4. Cc1ccc(NC(=O)CSc2nnc(-c3ccc(N=Cc4ccc(Cl)cc4)cc3)o2)cc1

Response:
1. > 100 µM
2. 15.2 µM
3. > 100 µM
4. > 100 µM

Give TGI for all compounds that follow.
1. CC(=O)Oc1ccc2c(c1)c1c(=O)oc(C)nc1n2Cc1ccccc1
2. COC(=O)CC1C=CC(C)(OC)OO1 (centres undefined)
3. COC(=O)/C=C/c1c(CC=C(C)C)ncn1C
4. COc1cc(C=O)c(-c2cc(OC)c(OC)cc2C=O)cc1OC
5. COc1cc(N(CCC#N)CCC#N)ccc1/C(N=Nc1ccccc1C)=N\NC(=O)c1ccc(C)cc1
6. CC(C)(C)OC(=O)NC(Cc1ccc(OC(C)(C)C)cc1)C(=O)N[C@H]1CCC[C@H]1C(=O)NC(Cc1ccccc1)C(=O)N1CCCC1C(N)=O (some centres undefined)
7. CCOP(=O)(COCCn1ncc(=O)[nH]c1=O)OCC
8. COc1cc2c(OC)cc1CSCc1sc(C)c(c1Br)CSC2

Response:
1: > 100 µM; 2: > 100 µM; 3: > 100 µM; 4: > 100 µM; 5: > 100 µM; 6: > 100 µM; 7: > 100 µM; 8: > 100 µM

Dear colleague, could you please provide TGI for the compounds listed below?
1. COc1ccc2c(c1)C(=O)OCCC2
2. O=C(c1cccs1)N(C(=O)N1CCN(c2ccccc2)CC1)S(=O)(=O)c1ccccc1
3. CC(C)CC(NC(=O)C(CI)Cc1ccccc1)C(=O)Nc1ccccc1 (centres undefined)

Response:
> 100 µM
36 µM
> 100 µM

====

Tested on: SR leukemia
Assay: NCI tumour cell line growth inhibition, 48 h
property: TGI

// solved cases for TGI follow
{"columns": ["molecule", "TGI"],
 "data": [
  ["COc1ccc(-c2ccc(-c3ccc(C(=N)N)s3)s2)cc1", "0.566 µM"],
  ["COc1cc(C(=O)N2CCN(c3ncccn3)CC2)c(N)cc1OCc1ccccc1", "> 100 µM"],
  ["NC(=O)OCCn1cc(-c2nc(-c3c[nH]c4ncccc34)cs2)c2ccccc21", "7.05 µM"],
  ["CC(C)N(CCn1c2c3ccccc3ccc2c2oc(=O)c3ccccc3c21)C(C)C", "> 100 µM"],
  ["O=C(CSC1CCc2ccccc21)N/N=C/c1ccccc1O (centres undefined)", "34.4 µM"],
  ["O=C1NC(=O)C(c2c[nH]c3ccccc23)=C1c1cn(C(c2ccccc2)(c2ccccc2)c2ccccc2)cn1", "6.78 µM"],
  ["CCCCCCOc1ccc(Nc2c(O)c3c(c(O)c2Cl)C(=O)C=CC3=O)cc1", "5.33 µM"],
  ["O=C(c1ccccc1)c1c(-c2ccccc2)n(-c2ccccc2)[nH]c(=O)c1=O", "> 100 µM"],
  ["O=C1NC(=NCCc2cccc(Cl)c2)S/C1=C\\c1ccc2ncccc2c1", "> 25 µM"],
  ["COC(=O)[C@]12CCC(C)(C)C[C@H]1[C@H]1C(=O)C=C3[C@@]4(C)C=C(C#N)C(=O)C(C)(C)[C@@H]4CC[C@@]3(C)[C@]1(C)CC2", "0.141 µM"]
]}

Please state, for each entry, its recorded TGI.
1. NCCSc1nc(-c2ccccc2)c(-c2ccccc2)o1
2. O=[N+]([O-])c1ccc(N2N=C(c3ccc(NCc4nc5ccccc5[nH]4)cc3)CC2c2ccco2)cc1 (centres undefined)
3. Nc1nc(NCC2(CO)CC2)cc(=O)[nH]1
4. CC(C)C(=O)NS(=O)(=O)c1ccccc1
5. COC(=O)[C@H](Cc1c[nH]c2ccccc12)NC(=O)c1ccc(CNC(=O)/C(C)=C/c2ccccc2)cc1
6. c1ccc([P+](CC[P+](c2ccccc2)(c2ccccc2)c2ccccc2)(c2ccccc2)c2ccccc2)cc1
7. CCn1sc2ccccc2c1=O

Response:
1. > 100 µM
2. 33.8 µM
3. > 100 µM
4. > 100 µM
5. > 100 µM
6. > 79.8 µM
7. > 100 µM

For each of the molecules below, state TGI.
1. Cc1cc(C2CC(O)C(CO)O2)c(F)cc1F (centres undefined)
2. O=c1oc2ccccc2cc1-c1cn2ccccc2n1
3. CC(O)CCCCC(O)CCC[C@H](O)[C@H]1CCC([C@H]2CCC([C@@H](O)CCCCCCCCCCCCC3=C[C@H](C)OC3=O)O2)O1 (some centres undefined)
4. CCC(C)C1NC(=O)C(NC(=O)c2c3[nH]c4c(C(=O)NC5C(=O)NC(C(C)CC)C(=O)N6CCCC6C(=O)N(C)CC(=O)N(C)C(C(C)C)C(=O)OC5C)ccc(C)c4oc-3c(C)c(=O)c2=O)C(C)OC(=O)C(C(C)C)N(C)C(=O)CN(C)C(=O)C2CCCN2C1=O (centres undefined)
5. COc1cccc2cc(C(=O)O)c(=O)oc12
6. Ic1cccc(/C=C/CN2CCN(CCOC(c3ccccc3)c3ccccc3)CC2)c1
7. COc1ccc(-c2coc3c4c(ccc3c2=O)OCO4)cc1OC
8. NC(=O)c1cc(S(=O)(=O)Nc2nnc(-c3ccccc3)c(-c3ccccc3)n2)c(SCc2ccccc2)cc1Cl

Response:
> 100 µM
> 35.5 µM
20.5 µM
4 µM
> 100 µM
28.9 µM
> 100 µM
> 70.9 µM

Quick request: TGI for each listed item, please.
1. COc1cc(C=O)c(-c2cc(OC)c(OC)cc2C=O)cc1OC
2. COc1ccc(NC(=O)N(C)CC2(O)CCC(C(C)(C)C)CC2)cc1 (centres undefined)
3. CN(C)CCNC(=O)c1ccc2nc3c(nc2c1)C(=O)c1ccccc1-3
4. Cc1c(C)n(-c2ccccc2)c2nc(S(C)(=O)=O)nc(S(C)(=O)=O)c12
5. c1ccc2c(c1)c1c(c3ccccc32)CN2CCCC2C1 (centres undefined)
6. CC(=O)O[C@H]1CC[C@@]2(C)C(=CC[C@@H]3[C@@H]2CC[C@]2(C)NC(=O)/C(=C\c4ccccc4)C[C@@H]32)C1
7. Cc1nn(C(=O)Cc2ccccc2)c2c1C(c1ccc(Cl)cc1)SC(N)=N2 (centres undefined)
8. COc1c[c]([Hg][O]C(C)=O)c(OC)c(NC(=O)CC(C)=O)[c]1[Hg][O]C(C)=O

Response:
["88.9 µM", "> 100 µM", "54.7 µM", "2.46 µM", "> 100 µM", "> 100 µM", "> 100 µM", "> 100 µM"]

TGI reading for O=C(O)C1C2C=CC(C2)C1c1ccccc1 (centres undefined) : > 100 µM
